Reference source: patent US20090311217A1

Target: PI3K-alpha (Homo sapiens, UniProt P42336)
Sequence (P42336 whole entry, species assumed): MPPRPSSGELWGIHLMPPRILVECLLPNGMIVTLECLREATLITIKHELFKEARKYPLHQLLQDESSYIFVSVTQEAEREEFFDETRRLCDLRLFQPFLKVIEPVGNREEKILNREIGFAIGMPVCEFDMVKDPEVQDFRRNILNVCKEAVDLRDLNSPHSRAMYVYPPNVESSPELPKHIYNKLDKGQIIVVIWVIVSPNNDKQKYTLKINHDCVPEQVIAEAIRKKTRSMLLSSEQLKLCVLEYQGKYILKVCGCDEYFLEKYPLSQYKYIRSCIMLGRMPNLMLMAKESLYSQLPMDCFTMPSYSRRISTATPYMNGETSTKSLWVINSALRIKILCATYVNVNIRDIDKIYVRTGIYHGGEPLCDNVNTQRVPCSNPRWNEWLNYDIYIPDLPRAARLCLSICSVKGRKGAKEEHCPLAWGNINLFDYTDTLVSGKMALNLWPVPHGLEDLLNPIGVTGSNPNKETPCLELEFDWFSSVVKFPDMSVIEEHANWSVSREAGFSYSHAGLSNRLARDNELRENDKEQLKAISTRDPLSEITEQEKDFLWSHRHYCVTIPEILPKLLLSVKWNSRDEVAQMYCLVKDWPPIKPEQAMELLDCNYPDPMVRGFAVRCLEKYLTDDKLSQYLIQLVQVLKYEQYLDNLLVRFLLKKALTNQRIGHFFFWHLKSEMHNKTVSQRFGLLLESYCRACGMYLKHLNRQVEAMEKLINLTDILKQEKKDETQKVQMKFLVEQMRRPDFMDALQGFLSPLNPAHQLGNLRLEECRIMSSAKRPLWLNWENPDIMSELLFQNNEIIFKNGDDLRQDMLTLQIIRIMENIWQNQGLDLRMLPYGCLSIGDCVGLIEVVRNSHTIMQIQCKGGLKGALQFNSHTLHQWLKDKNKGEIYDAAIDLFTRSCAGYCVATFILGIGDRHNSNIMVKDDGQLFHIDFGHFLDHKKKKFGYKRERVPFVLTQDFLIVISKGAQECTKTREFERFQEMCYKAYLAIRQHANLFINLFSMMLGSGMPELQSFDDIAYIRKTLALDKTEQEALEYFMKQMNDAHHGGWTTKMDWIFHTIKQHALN
Sequence (P27986 whole entry partner, species assumed): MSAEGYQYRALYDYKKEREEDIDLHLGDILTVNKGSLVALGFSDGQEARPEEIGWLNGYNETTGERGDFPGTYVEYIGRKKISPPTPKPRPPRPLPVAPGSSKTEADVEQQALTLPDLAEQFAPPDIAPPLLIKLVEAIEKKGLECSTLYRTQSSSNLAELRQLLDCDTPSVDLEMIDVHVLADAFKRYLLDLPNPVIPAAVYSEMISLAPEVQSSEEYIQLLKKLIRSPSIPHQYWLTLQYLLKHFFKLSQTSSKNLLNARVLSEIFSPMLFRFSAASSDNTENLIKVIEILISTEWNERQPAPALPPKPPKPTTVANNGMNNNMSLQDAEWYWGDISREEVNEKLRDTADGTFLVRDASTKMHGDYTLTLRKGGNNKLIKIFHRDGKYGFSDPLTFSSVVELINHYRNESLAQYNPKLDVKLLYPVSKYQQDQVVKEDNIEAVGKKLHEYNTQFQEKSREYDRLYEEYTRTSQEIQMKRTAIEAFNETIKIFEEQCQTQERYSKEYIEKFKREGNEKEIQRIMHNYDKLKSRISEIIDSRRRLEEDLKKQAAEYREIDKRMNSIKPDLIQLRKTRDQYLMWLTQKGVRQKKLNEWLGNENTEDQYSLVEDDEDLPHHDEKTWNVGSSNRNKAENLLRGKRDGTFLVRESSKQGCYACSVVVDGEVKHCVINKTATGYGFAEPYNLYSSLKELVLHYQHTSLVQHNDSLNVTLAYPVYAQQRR
Assay: PI3K-alpha fluorescence polarization assay
Type: biochemical
Details: read-out: PI3Kα Avg. IC50
MEASURED METRIC: IC50 (µM)

Study these solved cases before continuing.
{"columns": ["COMPOUND", "NUMERIC READOUT"],
 "data": [
  ["CNC(=O)Nc1ccc2c(c1)C(=O)/C(=C/c1c(-c3cnn(CC(C)C)c3)[nH]c3c(F)cc(OC)cc13)O2", 0.00265],
  ["COc1ccc2[nH]c(C)c(C=C3Oc4c(O)cccc4C3=O)c2c1", 1.54],
  ["COc1ccc2c(c1)c(/C=C1\\Oc3cc(O)cc(O)c3C1=O)c(C)n2CCN1CCC(O)C1 (stereo not drawn)", 0.011]
]}

[P] COc1cc2[nH]cc(C=C3Oc4cc(O)cc(O)c4C3=O)c2cc1OC
[Q] COc1cc(-c2cncnc2)c2c(c1)c(/C=C1\Oc3cc(O)cc(O)c3C1=O)cn2CCCC#N
### Prompt Higher IC50 between P and Q ? Output the label that corresponds to your choice.
### Response P
